Known pEC50 of a selection of substances
testedOn: hGLP1R (Homo sapiens, UniProt P43220)
Construct: expressed in transfected cells; host or cells: HEK-293 cells carrying a CRE-luciferase reporter gene
Sequence (P43220 24-463): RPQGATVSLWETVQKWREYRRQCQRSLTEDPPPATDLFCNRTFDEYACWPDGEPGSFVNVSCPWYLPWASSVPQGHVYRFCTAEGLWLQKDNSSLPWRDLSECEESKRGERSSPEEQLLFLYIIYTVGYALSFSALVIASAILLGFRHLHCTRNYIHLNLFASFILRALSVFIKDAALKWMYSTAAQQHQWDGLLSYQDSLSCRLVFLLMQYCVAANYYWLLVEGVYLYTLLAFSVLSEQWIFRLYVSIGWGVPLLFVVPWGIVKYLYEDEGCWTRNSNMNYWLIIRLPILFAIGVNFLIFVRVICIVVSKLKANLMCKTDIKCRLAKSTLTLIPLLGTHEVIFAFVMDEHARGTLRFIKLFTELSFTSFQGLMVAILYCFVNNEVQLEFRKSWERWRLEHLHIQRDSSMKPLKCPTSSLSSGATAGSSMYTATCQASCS
method: hGLP1R CreLuc reporter gene assay in 0.5% and 100% plasma
Format: cell-based
conditionSummary: CreLuc reporter gene assay, 0.5% human plasma; read-out: hGLP1R 0.5% hP
pEC50: −log10 of the molar value. Starred links: 1 amine or outer side, 2 acyl side, 3 side chain; linkers in the order of their positions; H or OH if unused. Non-standard residues stand in square brackets, D forms with d. Groups on a side chain read outwards from the residue. *: point of attachment. C20 diacid = O=C(O)CCCCCCCCCCCCCCCCCCC(=O)*; γGlu = O=C(O)[C@H](CCC(=O)[*:2])N[*:1]; εLys = N[C@@H](CCCCN[*:1])C(=O)[*:2]; Aib = CC(C)(N)C(=O)O

substance	pEC50
H-Y[Aib]EGTFTSDYSI[Aib]LEKQAQ[Aib]AFVEWLIK([εLys-γGlu-γGlu-γGlu-γGlu-γGlu-γGlu-C20 diacid])GGPSSGASLRHYYNLLTRQRY-NH2 [Compound 195]	9.89
H-Y[Aib]EGTFTSDYSI[Aib]LEKQAQ[Aib]AFVQWLIK([εLys-γGlu-γGlu-γGlu-γGlu-γGlu-γGlu-C20 diacid])GGPSSGVSLRHYYNWLTRQRY-NH2 [Compound 47]	10.15
H-Y[Aib]EGTFTSDYSI[Aib]LEKQAQ[Aib]AFVEWLIK([εLys-γGlu-γGlu-γGlu-γGlu-γGlu-γGlu-C20 diacid])GGPSSGASLRHYLNL[Aib]TRQRY-NH2 [Compound 17]	9.85
